Source listed as PubChem BioAssay.

target under test: L-lactate dehydrogenase (Plasmodium falciparum (isolate CDC / Honduras)) (UniProt Q27743)
Sequence (Q27743 whole entry, looked up): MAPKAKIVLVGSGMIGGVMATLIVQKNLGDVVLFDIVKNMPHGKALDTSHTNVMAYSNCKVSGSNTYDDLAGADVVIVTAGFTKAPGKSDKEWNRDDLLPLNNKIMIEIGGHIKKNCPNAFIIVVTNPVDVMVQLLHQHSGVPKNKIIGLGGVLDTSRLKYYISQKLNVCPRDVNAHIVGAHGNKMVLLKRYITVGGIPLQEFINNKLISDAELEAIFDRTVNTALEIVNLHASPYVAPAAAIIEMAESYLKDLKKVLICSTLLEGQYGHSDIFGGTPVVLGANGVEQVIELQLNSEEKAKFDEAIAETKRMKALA
assay comment: PfLDH activity inhibition – cell lysate, 3D7 strain, counter-screen for P. falciparum growth inhibition project (AID 2304);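 note: 0% = vehicle and 100% = reference inhibitor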
conditions: P. falciparum 3D7 crude extract, LDH APAD/NBT absorbance; at 2 µM; hits give high values
Active and inactive are the calls of the source. The rule behind the calls is not given here.
Catalogue of compounds with associated inhibition

O=C(C=CC(=O)N1CCCCC1)NCc1ccccc1    -2% (inactive)
CN(c1ccc(NC(=O)c2ccc(F)cc2)cc1)C1CCN(Cc2cccc(F)c2)C1 (stereo not given)    -2% (inactive)
Cc1ccc(S(=O)(=O)NC2CCN(CCNC(=O)Nc3cc(C)nc4ccccc34)C2)cc1 (stereo not given)    -3% (inactive)
Cc1ccc(CN2CCC(Oc3cccc(NC(=O)c4ccc(C(F)(F)F)cc4)c3)CC2)cc1    -1% (inactive)
C=CCc1cc(Br)ccc1OCCCOc1c(N)nc(N)nc1N    4% (inactive)

// next item, inhibition requested
Task item: Record request: inhibition value, item "CC(C)(C(=O)Nc1ccc(N2CCC3(CCCN(CC4CC4)C3)CC2)c(Cl)c1)c1cccc(C(F)(F)F)c1"
Reply: 4% (inactive)
